Assay: Half life in C57BL/6 mouse at 0.3 mg/kg, ip
Assay type: ADME, organism-based
Conditions: in vivo
EXPERIMENTAL_ENDPOINT: half-life

Problem: What does the record list as half-life for `N[C@@H](CCB(O)O)C(=O)O` ?
Result: 3.92 h

---

Target: Glutathione hydrolase 1 proenzyme (Homo sapiens, UniProt P19440)
Sequence (P19440 1-380 limits assumed): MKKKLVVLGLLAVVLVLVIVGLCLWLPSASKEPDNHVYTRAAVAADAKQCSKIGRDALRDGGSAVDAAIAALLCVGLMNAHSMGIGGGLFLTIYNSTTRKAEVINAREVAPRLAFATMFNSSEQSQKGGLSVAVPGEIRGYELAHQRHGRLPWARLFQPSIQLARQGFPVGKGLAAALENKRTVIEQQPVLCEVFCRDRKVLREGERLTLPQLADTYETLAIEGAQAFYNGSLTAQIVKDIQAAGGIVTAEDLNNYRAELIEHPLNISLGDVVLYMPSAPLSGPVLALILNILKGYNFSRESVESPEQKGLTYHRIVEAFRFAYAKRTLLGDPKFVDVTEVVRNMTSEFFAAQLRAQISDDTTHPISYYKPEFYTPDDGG
Sequence (P19440 381-569 limits assumed): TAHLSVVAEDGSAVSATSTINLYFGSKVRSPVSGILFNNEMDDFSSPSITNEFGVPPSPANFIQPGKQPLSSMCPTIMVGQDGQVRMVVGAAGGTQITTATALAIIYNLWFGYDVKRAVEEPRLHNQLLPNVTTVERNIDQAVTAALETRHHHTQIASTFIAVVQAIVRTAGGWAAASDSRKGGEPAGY
Assay: Inhibition of GGT1 (unknown origin) transpeptidation assessed as inhibition constant using L-GpNA as substrate in presence of Gly-Gly
EXPERIMENTAL_ENDPOINT: log10(Ki) (log10 of the value in µM)
Recorded Ki (log10, µM)

Here is how some molecules turned out for log10(Ki).
In [3]: df
Out[3]:
                                   molecule  experimental_endpoint  readout_value
0            CC(N)(CCB(O)O)C(=O)O (racemic)              log10(Ki)          -0.04
1                    N[C@@H](CCB(O)O)C(=O)O              log10(Ki)          -2.30
2           CCC(N)(CCB(O)O)C(=O)O (racemic)              log10(Ki)           2.65
3  COc1ccc(Cc2nnc(NS(=O)(=O)c3ccccc3)s2)cc1              log10(Ki)           1.83
4                   N[C@@H](CCCB(O)O)C(=O)O              log10(Ki)           3.58

--- query ---
Problem: Reported log10(Ki), molecule CCCC(N)(CCB(O)O)C(=O)O (racemic) : ____
Result: 2.30
